Tested on: wild oat
Assay: Test C preemergence/postemergence greenhouse plant response rating 0 to 100
Assay type: in vivo, Avena fatua
Settings: POSTEMERGENCE; Rate 1 g/ha
Description: The compounds evaluated in this test were formulated in a non-phytoxic solvent and applied to the soil surface before plant seedlings emerged (preemergence application), to water that covered the soil surface (flood application), and to plants that were in the one-to-four leaf stage (postemergence application). A sandy loam soil was used for the preemergence and postemergence tests, while a silt loam soil was used in the flood test. […]
MEASUREMENT NAME: Plant response rating (0 to 100), Wild oat
// print number alone

These recorded examples may help you get a feel for the data.
CCN1C(=O)COc2cc(F)c(-c3nn4c(c3Cl)CCCC4)cc21 [Compound 54]
20
CCCN1C(=O)COc2cc(F)c(-c3nn4c(c3Cl)CCCC4)cc21 [Compound 32]
20
CC(C)Oc1cc(-c2nn3c(c2Br)CCCC3)c(F)cc1Cl [Compound 38]
0

Field request: Plant response rating (0 to 100), Wild oat | item: C=CCN1C(=O)COc2cc(F)c(-c3nn4c(c3Cl)CCCC4)cc21 [Compound 33]
30

---

Tested on: lambsquarters
Assay: Test B preemergence/postemergence greenhouse plant response rating 0 to 10
Type: in vivo, Chenopodium album
Conditions: POSTEMERGENCE, Rate 50 g/ha; 0 to 10 scale
Listed next: entries and their corresponding Plant response rating, Lambsquarter.
// print number alone

These recorded examples may help you get a feel for the data.
C#CCN1C(=O)COc2cc(F)c(-c3nn4c(c3Cl)CCCC4)cc21 [Compound 34]
10
Clc1ccc(-c2nn3c(c2Cl)CCCC3)c(Cl)c1 [Compound 35]
9
CC(C)OC(=O)COc1cc(-c2nn3c(c2Br)CCCC3)c(F)cc1Cl [Compound 64]
9
Clc1ccc(-c2nc3n(c2Cl)CCC=C3)c(Cl)c1 [Compound 1]
4
C#CCOc1cc(-c2nn3c(c2Br)CCCC3)c(F)cc1Cl [Compound 26]
10

Field request: Plant response rating, Lambsquarter | item: CON=C(C)c1cc(-c2nn3c(c2Cl)CCCC3)c(F)cc1Cl [Compound 82]
7

Field request: Plant response rating, Lambsquarter | item: COCOc1cc(-c2nn3c(c2Br)CCCC3)c(F)cc1Cl [Compound 65]
10

Field request: Plant response rating, Lambsquarter | item: FCCCOc1cc(-c2nn3c(c2Cl)CCCC3)c(F)cc1Cl [Compound 79]
9

Field request: Plant response rating, Lambsquarter | item: CC(C)N1C(=O)COc2cc(F)c(-c3nn4c(c3Cl)CCCC4)cc21 [Compound 31]
10

---

Tested on: sorghum
Test: Test B preemergence/postemergence greenhouse plant response rating 0 to 10
Assay type: in vivo, Sorghum bicolor
Conditions: PREEMERGENCE, Rate 50 g/ha; 0 to 10 scale
Text: Seeds of barley (Hordeum vulgare), barnyardgrass (Echinochloa crus-galli), bedstraw (Galium aparine), blackgrass (Alopecurus myosuroides), […] […] Treated plants and controls were maintained in a greenhouse for twelve to sixteen days, after which all species were compared to controls and visually evaluated. […]
Listed next: entries and their corresponding Plant response rating, Sorghum.
// print number alone

These recorded examples may help you get a feel for the data.
Clc1ccc(-c2nc3n(c2Br)CCCC3)c(Cl)c1
0
CC(C)Oc1cc(-c2nn3c(c2Br)CCCC3)c(F)cc1Cl
0

Now, please, on to the next compound.
Provide the documented Plant response rating, Sorghum with sorghum as the system for CC(C#N)Oc1cc(-c2nn3c(c2Cl)CCCC3)c(F)cc1Cl (stereo not drawn)
2
